- study.target: UniProt:P51813
- Sequence (P51813 whole entry, looked up): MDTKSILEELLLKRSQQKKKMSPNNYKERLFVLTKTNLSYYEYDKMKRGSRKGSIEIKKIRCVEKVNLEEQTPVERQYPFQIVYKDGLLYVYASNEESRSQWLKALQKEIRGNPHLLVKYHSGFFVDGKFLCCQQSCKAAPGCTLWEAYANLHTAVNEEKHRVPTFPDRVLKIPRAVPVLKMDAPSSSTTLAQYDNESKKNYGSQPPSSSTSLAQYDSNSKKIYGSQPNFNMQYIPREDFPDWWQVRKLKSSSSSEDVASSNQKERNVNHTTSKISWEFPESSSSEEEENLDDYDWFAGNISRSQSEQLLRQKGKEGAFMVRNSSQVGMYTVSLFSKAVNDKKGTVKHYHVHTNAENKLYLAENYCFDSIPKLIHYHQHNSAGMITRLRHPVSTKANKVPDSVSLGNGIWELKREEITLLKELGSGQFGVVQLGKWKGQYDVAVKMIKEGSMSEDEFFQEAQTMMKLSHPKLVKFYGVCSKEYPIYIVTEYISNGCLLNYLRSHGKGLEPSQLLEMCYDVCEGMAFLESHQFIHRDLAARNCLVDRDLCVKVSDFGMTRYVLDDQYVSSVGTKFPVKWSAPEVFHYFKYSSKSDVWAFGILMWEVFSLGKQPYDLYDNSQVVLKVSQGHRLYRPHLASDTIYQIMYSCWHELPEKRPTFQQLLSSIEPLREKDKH
- method.summary: radiometric filter-binding kinase assay, Kinase HotSpot
- recorded.conditions: compound 0.5 µM; ATP 10 µM
Each entry below carries its recorded residual activity.
observation.type: residual activity (%)

{"columns": ["molecule.smiles", "value.reported"],
 "data": [
  ["CCOc1cc2ncnc(Nc3cccc(Br)c3)c2cc1OCC", 95.5],
  ["O=c1[nH]c2ccccc2n1C1CCN(Cc2ccc(-c3nc4cc5[nH]cnc5cc4nc3-c3ccccc3)cc2)CC1", 108],
  ["N#C/C(=C1/Nc2ccccc2S1)c1ccnc(NCCc2cccnc2)n1", 92.9],
  ["O=c1c2ccccc2[nH]c(=S)n1CCN1CCC(=C(c2ccc(F)cc2)c2ccc(F)cc2)CC1", 85.5],
  ["O=C(c1ccccc1)c1ccc(N2CCOCC2)cc1O", 90.4],
  ["FC(F)(F)c1ccc(/C=C/c2nc(COc3ccc(CCCCn4ccnn4)cc3)co2)cc1", 99],
  ["N#CCCc1ccc2c(c1)-c1[nH]c3ccc([N+](=O)[O-])cc3c1CC(=O)N2", 99.5],
  ["N/C(=N\\N=C/c1ccc(-c2cccc([N+](=O)[O-])c2)o1)N[N+](=O)[O-]", 90.1],
  ["COc1cccc(-c2cc(=O)c3ccccc3o2)c1N", 103],
  ["CCCCc1c(-c2ccc(O)cc2)[nH]c2nccnc12", 86.8],
  ["COc1cc2ncnc(Nc3ccc(O)c(Br)c3)c2cc1OC", 95.3],
  ["O=c1cc(N2CCOCC2)oc2c(-c3ccccc3)cccc12", 96.9],
  ["O=c1c(-c2ccc(F)cc2)c(-c2ccncc2)[nH]n1-c1ccc(Cl)cc1", 95.8],
  ["c1ccc(-c2cnc(Nc3ccc(OCCN4CCCC4)cc3)s2)cc1", 84.5],
  ["COc1cc2c(cc1OC)-c1[nH]nc(Nc3cccc(F)c3)c1C2", 74.8]
]}

* * *

- study.target: ERBB2 (human) (UniProt P04626)
- Sequence (P04626 whole entry, looked up): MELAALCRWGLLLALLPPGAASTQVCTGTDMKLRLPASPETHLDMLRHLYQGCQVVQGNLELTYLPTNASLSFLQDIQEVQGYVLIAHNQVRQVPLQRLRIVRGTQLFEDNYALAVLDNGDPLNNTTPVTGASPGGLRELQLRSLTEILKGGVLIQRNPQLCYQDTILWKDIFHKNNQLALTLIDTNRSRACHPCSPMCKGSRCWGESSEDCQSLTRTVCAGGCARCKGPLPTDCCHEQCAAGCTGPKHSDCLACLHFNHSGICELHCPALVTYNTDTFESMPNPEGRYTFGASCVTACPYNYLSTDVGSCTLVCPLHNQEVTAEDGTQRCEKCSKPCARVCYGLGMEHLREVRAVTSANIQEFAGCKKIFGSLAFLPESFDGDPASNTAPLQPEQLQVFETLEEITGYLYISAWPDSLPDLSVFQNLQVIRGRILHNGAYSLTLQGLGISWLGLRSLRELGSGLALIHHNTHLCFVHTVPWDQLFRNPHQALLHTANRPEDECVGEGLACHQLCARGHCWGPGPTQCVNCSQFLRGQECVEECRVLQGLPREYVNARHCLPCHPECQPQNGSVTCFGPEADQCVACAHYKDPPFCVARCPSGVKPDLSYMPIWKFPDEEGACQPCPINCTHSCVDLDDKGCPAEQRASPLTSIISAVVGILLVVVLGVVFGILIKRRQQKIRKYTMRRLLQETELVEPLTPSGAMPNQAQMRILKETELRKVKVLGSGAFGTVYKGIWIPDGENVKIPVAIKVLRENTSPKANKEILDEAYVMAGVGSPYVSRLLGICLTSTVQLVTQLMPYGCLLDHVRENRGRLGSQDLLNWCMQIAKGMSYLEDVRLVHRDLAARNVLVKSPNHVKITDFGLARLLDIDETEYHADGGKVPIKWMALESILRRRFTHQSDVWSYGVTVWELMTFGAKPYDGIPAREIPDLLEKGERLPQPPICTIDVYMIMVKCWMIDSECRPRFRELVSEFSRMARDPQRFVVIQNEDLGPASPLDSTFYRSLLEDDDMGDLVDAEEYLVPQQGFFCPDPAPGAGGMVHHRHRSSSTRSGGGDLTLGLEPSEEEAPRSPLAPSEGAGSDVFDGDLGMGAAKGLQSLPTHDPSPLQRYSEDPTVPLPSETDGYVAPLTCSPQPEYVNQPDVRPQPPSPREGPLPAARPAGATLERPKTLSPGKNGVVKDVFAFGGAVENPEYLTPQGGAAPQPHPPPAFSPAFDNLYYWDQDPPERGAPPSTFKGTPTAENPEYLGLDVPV
- method.summary: radiometric filter-binding kinase assay, Kinase HotSpot
- recorded.conditions: compound 0.5 µM; ATP 10 µM
Listed next: entries and their corresponding residual activity.
observation.type: residual activity (%)

{"columns": ["molecule.smiles", "value.units", "value.reported"],
 "data": [
  ["N#CCCc1ccc2c(c1)-c1[nH]c3ccc([N+](=O)[O-])cc3c1CC(=O)N2", "%", 98.6],
  ["N/C(=N\\N=C/c1ccc(-c2cccc([N+](=O)[O-])c2)o1)N[N+](=O)[O-]", "%", 100],
  ["O=C1NC(=O)c2cc(Nc3ccc(F)cc3)c(Nc3ccc(F)cc3)cc21", "%", 107],
  ["Nc1ncnc2c1cnn2-c1ccccc1", "%", 107],
  ["COc1cc2c(N3CCN(C(=O)Nc4ccc(OC(C)C)cc4)CC3)ncnc2cc1OCCCN1CCCCC1", "%", 104]
]}

* * *

- study.target: RAF1 (human)
- method.summary: radiometric filter-binding kinase assay, Kinase HotSpot
- recorded.conditions: compound 0.5 µM; ATP 10 µM
In this section we review reported residual activity values for a set of molecules.

{"columns": ["molecule.smiles", "residual activity / %"],
 "data": [
  ["COc1cccc(-c2cc(=O)c3ccccc3o2)c1N", 91.5],
  ["CCc1nc(-c2ccc(OC)cc2)[nH]c1-c1ccncc1", 93.4],
  ["FC(F)(F)c1ccc(/C=C/c2nc(COc3ccc(CCCCn4ccnn4)cc3)co2)cc1", 97.1],
  ["CCOc1cc2ncnc(Nc3cccc(Br)c3)c2cc1OCC", 91.6],
  ["N/C(=N\\N=C/c1ccc(-c2cccc([N+](=O)[O-])c2)o1)N[N+](=O)[O-]", 98.1],
  ["O=C1NC(=O)c2cc(Nc3ccc(F)cc3)c(Nc3ccc(F)cc3)cc21", 81.9],
  ["O=c1c(-c2ccc(F)cc2)c(-c2ccncc2)[nH]n1-c1ccc(Cl)cc1", 61.4],
  ["O=S(=O)(NCCNC/C=C/c1ccc(Br)cc1)c1cccc2cnccc12", 96.4],
  ["O=c1c2ccccc2[nH]c(=S)n1CCN1CCC(=C(c2ccc(F)cc2)c2ccc(F)cc2)CC1", 96.7],
  ["COc1cc2c(Nc3ccc(Br)cc3F)ncnc2cc1OCC1CCN(C)CC1", 81.1],
  ["O=c1cc(N2CCOCC2)oc2c(-c3ccccc3)cccc12", 82.3],
  ["Cc1cc(Nc2nc(-c3ccccc3)nc3ccccc23)n[nH]1", 99.8],
  ["O=C(c1ccccc1)c1ccc(N2CCOCC2)cc1O", 95.9],
  ["N#C/C(=C1/Nc2ccccc2S1)c1ccnc(NCCc2cccnc2)n1", 84],
  ["N#CCCc1ccc2c(c1)-c1[nH]c3ccc([N+](=O)[O-])cc3c1CC(=O)N2", 104],
  ["CCCCc1c(-c2ccc(O)cc2)[nH]c2nccnc12", 106],
  ["O=c1[nH]c2ccccc2n1C1CCN(Cc2ccc(-c3nc4cc5[nH]cnc5cc4nc3-c3ccccc3)cc2)CC1", 94.7],
  ["O=C(O)c1ccc2c3c1cccc3c(=O)n1c3ccccc3nc21", 97.5],
  ["Cn1cc(/C=C2\\C(=O)Nc3ccc(S(N)(=O)=O)cc32)c2ccccc21", 102]
]}

* * *

Below is a list of entries, each paired with its recorded residual activity value.
- study.target: UniProt:Q9UBE8
- Sequence (Q9UBE8 whole entry, looked up): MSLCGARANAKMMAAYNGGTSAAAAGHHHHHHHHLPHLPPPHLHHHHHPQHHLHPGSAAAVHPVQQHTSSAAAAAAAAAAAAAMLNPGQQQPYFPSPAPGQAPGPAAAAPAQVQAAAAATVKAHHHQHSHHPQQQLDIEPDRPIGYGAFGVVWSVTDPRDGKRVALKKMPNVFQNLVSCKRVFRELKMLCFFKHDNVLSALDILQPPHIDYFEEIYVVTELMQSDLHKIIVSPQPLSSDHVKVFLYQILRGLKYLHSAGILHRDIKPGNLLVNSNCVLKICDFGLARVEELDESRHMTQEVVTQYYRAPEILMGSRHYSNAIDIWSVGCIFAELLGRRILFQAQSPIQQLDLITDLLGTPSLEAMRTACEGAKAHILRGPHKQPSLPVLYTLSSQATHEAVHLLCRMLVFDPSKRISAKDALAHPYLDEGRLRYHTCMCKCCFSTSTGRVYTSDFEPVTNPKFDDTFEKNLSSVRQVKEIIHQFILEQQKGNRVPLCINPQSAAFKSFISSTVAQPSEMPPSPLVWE
- method.summary: radiometric filter-binding kinase assay, Kinase HotSpot
- recorded.conditions: compound 0.5 µM; ATP 10 µM

{"columns": ["molecule.smiles", "residual activity, %"],
 "data": [
  ["O=c1cc(N2CCOCC2)oc2c(-c3ccccc3)cccc12", 99.8],
  ["COc1cc2c(N3CCN(C(=O)Nc4ccc(OC(C)C)cc4)CC3)ncnc2cc1OCCCN1CCCCC1", 105],
  ["O=C1NC(=O)c2c1c1c3ccccc3[nH]c1c1[nH]c3cc(Br)ccc3c21", 81.7],
  ["COc1cc2c(Nc3ccc(Br)cc3F)ncnc2cc1OCC1CCN(C)CC1", 96.2],
  ["Cn1cc(/C=C2\\C(=O)Nc3ccc(S(N)(=O)=O)cc32)c2ccccc21", 90.4],
  ["Cc1cc(Nc2nc(-c3ccccc3)nc3ccccc23)n[nH]1", 94.7],
  ["O=c1c2ccccc2[nH]c(=S)n1CCN1CCC(=C(c2ccc(F)cc2)c2ccc(F)cc2)CC1", 99.5],
  ["Nc1ncnc2c1cnn2-c1ccccc1", 92.5],
  ["COc1cccc(-c2cc(=O)c3ccccc3o2)c1N", 96.4],
  ["O=C(O)c1ccc2c3c1cccc3c(=O)n1c3ccccc3nc21", 96.1],
  ["CCOc1cc2ncnc(Nc3cccc(Br)c3)c2cc1OCC", 95.9],
  ["COc1cc2c(cc1OC)-c1[nH]nc(Nc3cccc(F)c3)c1C2", 74.1],
  ["O=S(=O)(NCCNC/C=C/c1ccc(Br)cc1)c1cccc2cnccc12", 94.9],
  ["O=C(c1ccccc1)c1ccc(N2CCOCC2)cc1O", 97.3],
  ["N#Cc1c(NC(=O)c2cccc3ccccc23)sc2c1CCCC2", 99.4],
  ["CCCCc1c(-c2ccc(O)cc2)[nH]c2nccnc12", 90.3],
  ["CCc1nc(-c2ccc(OC)cc2)[nH]c1-c1ccncc1", 103],
  ["FC(F)(F)c1ccc(/C=C/c2nc(COc3ccc(CCCCn4ccnn4)cc3)co2)cc1", 101],
  ["N/C(=N\\N=C/c1ccc(-c2cccc([N+](=O)[O-])c2)o1)N[N+](=O)[O-]", 103],
  ["c1ccc(-c2cnc(Nc3ccc(OCCN4CCCC4)cc3)s2)cc1", 89.7],
  ["COc1cc2ncnc(Nc3ccc(O)c(Br)c3)c2cc1OC", 76.2],
  ["O=c1c(-c2ccc(F)cc2)c(-c2ccncc2)[nH]n1-c1ccc(Cl)cc1", 16],
  ["O=C1NC(=O)c2cc(Nc3ccc(F)cc3)c(Nc3ccc(F)cc3)cc21", 103]
]}

* * *

- study.target: SRC (human)
- method.summary: radiometric filter-binding kinase assay, Kinase HotSpot
- recorded.conditions: compound 0.5 µM; ATP 10 µM

{"columns": ["molecule.smiles", "residual activity (%)"],
 "data": [
  ["c1ccc(-c2cnc(Nc3ccc(OCCN4CCCC4)cc3)s2)cc1", 75.3],
  ["N#Cc1c(NC(=O)c2cccc3ccccc23)sc2c1CCCC2", 93.5],
  ["COc1cc2ncnc(Nc3ccc(O)c(Br)c3)c2cc1OC", 77.5],
  ["Cc1cc(Nc2nc(-c3ccccc3)nc3ccccc23)n[nH]1", 24.4],
  ["O=c1cc(N2CCOCC2)oc2c(-c3ccccc3)cccc12", 96.3],
  ["O=C1NC(=O)c2cc(Nc3ccc(F)cc3)c(Nc3ccc(F)cc3)cc21", 101],
  ["CCCCc1c(-c2ccc(O)cc2)[nH]c2nccnc12", 65.2],
  ["O=c1c(-c2ccc(F)cc2)c(-c2ccncc2)[nH]n1-c1ccc(Cl)cc1", 91.6],
  ["COc1cccc(-c2cc(=O)c3ccccc3o2)c1N", 92.6],
  ["COc1cc2c(N3CCN(C(=O)Nc4ccc(OC(C)C)cc4)CC3)ncnc2cc1OCCCN1CCCCC1", 102],
  ["O=C1NC(=O)c2c1c1c3ccccc3[nH]c1c1[nH]c3cc(Br)ccc3c21", 88.9],
  ["Cn1cc(/C=C2\\C(=O)Nc3ccc(S(N)(=O)=O)cc32)c2ccccc21", 45.1],
  ["CN[C@@H]1C[C@H]2O[C@@](C)([C@@H]1OC)n1c3ccccc3c3c4c(c5c6ccccc6n2c5c31)C(=O)NC4", 1.46],
  ["N/C(=N\\N=C/c1ccc(-c2cccc([N+](=O)[O-])c2)o1)N[N+](=O)[O-]", 99],
  ["O=c1c2ccccc2[nH]c(=S)n1CCN1CCC(=C(c2ccc(F)cc2)c2ccc(F)cc2)CC1", 103],
  ["COc1cc2c(cc1OC)-c1[nH]nc(Nc3cccc(F)c3)c1C2", 63.4],
  ["N#C/C(=C1/Nc2ccccc2S1)c1ccnc(NCCc2cccnc2)n1", 86.8],
  ["CCOc1cc2ncnc(Nc3cccc(Br)c3)c2cc1OCC", 74.8],
  ["FC(F)(F)c1ccc(/C=C/c2nc(COc3ccc(CCCCn4ccnn4)cc3)co2)cc1", 92.5],
  ["O=c1[nH]c2ccccc2n1C1CCN(Cc2ccc(-c3nc4cc5[nH]cnc5cc4nc3-c3ccccc3)cc2)CC1", 103],
  ["N#CCCc1ccc2c(c1)-c1[nH]c3ccc([N+](=O)[O-])cc3c1CC(=O)N2", 30.8]
]}
